Test system: K-562 leukemia
Experiment: NCI tumour cell line growth inhibition, 48 h
Provide the reported TGI of each item.

compound | value_type | experimental_value
CC(OC(C)(C)C)[C@H](NC(=O)OCC(Cl)(Cl)Cl)C(=O)O (stereo not given in full) | TGI | > 100 µM
COc1cc2c(cc1OCCCNC(=O)c1cccc3c(=O)c4ccccc4[nH]c13)N=C[C@@H]1CCCN1C2=O | TGI | > 100 µM
CN1CCOC(c2ccccc2)O1 (stereo not given) | TGI | > 100 µM
CSc1ncnc2c1ncn2CCC(=O)OC(C)(C)C | TGI | > 100 µM
Cc1ccc(NC(=O)CCc2cc(C(C)(C)C)nc(=S)[nH]2)cc1C | TGI | > 100 µM

For every record below, what is its TGI?
1. CN1C(=O)N(C)C2C1NN=c1s/c(=C\c3ccc(Cl)cc3Cl)c(=O)n12 (stereo not given)
2. CN(C)C(n1cc2c(c1)-c1ccc(Cl)cc1C(c1ccccc1F)=NC2)n1cc2c(c1)-c1ccc(Cl)cc1C(c1ccccc1F)=NC2
3. Cc1ncc(C(=O)Nc2ccc(CN3CCN(C)CC3)c(C(F)(F)F)c2)cc1C#Cc1cnc(N)c2ccncc12
4. CCCC(=O)Nc1cc2c3c(c1)CCCN3CCC2
5. Cc1cc2oc(=N)c(C#N)c(C)c2cc1C

stdout:
1: > 50.7 µM; 2: > 100 µM; 3: 4.48 µM; 4: > 10 µM; 5: > 100 µM
